Just for reference, ChEMBL document CHEMBL1949587 is where these values come from.

- Tested on: MKN-28
- PROTOCOL DETAILS: Antiproliferative activity against human MKN28 cells assessed as cell growth inhibition
- Format: cell-based
pIC50: −log10 of the molar value.
MEASURED ATTRIBUTE: pIC50

                                chem_smiles  measured_attribute  assay_result
0  COc1ccc(C(=O)NC[C@H](O)CO)cc1/C=C/c1ccc(Cl)cc1               pIC50          4.64
1  COc1ccc(C(=O)NC[C@@H](O)CO)cc1/C=C/c1ccc(Cl)cc1               pIC50          4.82

----------
- Test system: HUVEC
- PROTOCOL DETAILS: Selectivity ratio of IC50 for human HCT116 cells to IC50 for HUVEC cells
MEASURED ATTRIBUTE: Ratio IC50
Enter the number alone.

Field: example entries. Status: answers known.
>>> df
                       chem_smiles  assay_result
0     Cc1cc(OCc2cccc(C#N)c2)ccc1Cl           4.1
1  COc1ccc(C(C)=O)cc1COc1cccc(C)c1           8.6

Here's the next entry for you.
[Q] Item COc1ccc(C(N)=O)cc1/C=C/c1ccccc1OC(F)(F)F has what recorded Ratio IC50?
[A] 4

----------
- Test system: HUVEC
- PROTOCOL DETAILS: Selectivity ratio of IC50 for human HCT116 cells to IC50 for HUVEC cells
MEASURED ATTRIBUTE: Ratio IC50

Field: example entries. Status: answers known.
                            chem_smiles  assay_result
0  COc1ccc(C(N)=O)cc1/C=C/c1ccc(Cl)cc1F          >5.9
1      COc1ccc(C(N)=O)cc1COc1ccc(Cl)cc1           >75
2   COc1ccc(C(N)=O)cc1COc1ccc(Cl)c(C)c1           >78

[Q] Item COc1ccccc1/C=C/c1cc(C(N)=O)ccc1OC has what recorded Ratio IC50?
[A] >8.8

[Q] Now consider COc1ccc(C(N)=O)cc1/C=C/c1ccc(Cl)cc1Cl .
[A] >19

----------
Below: a set of entries, each annotated with reported Ratio IC50.
- Tested on: HUVEC
- PROTOCOL DETAILS: Selectivity ratio of IC50 for human HCT116 cells to IC50 for HUVEC cells

[Q] Item COc1ccc(C(N)=O)cc1C(=O)Nc1ccc(Cl)cc1 has what recorded Ratio IC50?
[A] >9

[Q] Now consider COc1ccc(C#N)cc1COc1ccc(Cl)c(C)c1 .
[A] >33

[Q] Now consider COc1ccc(C(N)=O)cc1/C=C/c1cccc(F)c1 .
[A] >6
